Origin of measurements: patent US12097193B2

Assay: Phase 1 two-period crossover study of the effect of quinidine on the pharmacokinetics of opicapone (plasma PK)
Format: in vivo, human
Settings: both sexes, human, plasma, oral, 50 mg, opicapone in plasma; healthy subjects, fasted, single dose OPC 50 mg; Median; read-out: t½, Median (converted)
resultType: half-life (min)
Give the value in min but do not write min after it.

Exercise: If you can, please state the reported half-life value of Cc1c(Cl)c(C)[n+]([O-])c(Cl)c1-c1noc(-c2cc(O)c(O)c([N+](=O)[O-])c2)n1 .
Solution: 55.9

###

Assay: Phase 1 two-period crossover study of the effect of quinidine on the pharmacokinetics of opicapone (plasma PK)
Assay type: in vivo, human
Conditions: both sexes, human, plasma, oral, 50 mg, opicapone in plasma; healthy subjects, fasted, single dose OPC 50 mg; Median; read-out: AUC(0-inf), Median
resultType: AUC(0-inf) (ng·h/mL)
Give the value in ng·h/mL but do not write ng·h/mL after it.

Exercise: If you can, please state the reported AUC(0-inf) value of Cc1c(Cl)c(C)[n+]([O-])c(Cl)c1-c1noc(-c2cc(O)c(O)c([N+](=O)[O-])c2)n1 .
Solution: 2020

###

Assay: Phase 1 two-period crossover study of the effect of quinidine on the pharmacokinetics of opicapone (plasma PK)
Assay type: in vivo, human
Conditions: both sexes, human, plasma, oral, 50 mg, opicapone in plasma; healthy subjects, fasted, single dose OPC 50 mg; Median; read-out: AUC(0-last), Median
resultType: AUC(0-t) (ng·h/mL)
Give the value in ng·h/mL but do not write ng·h/mL after it.

Exercise: If you can, please state the reported AUC(0-t) value of Cc1c(Cl)c(C)[n+]([O-])c(Cl)c1-c1noc(-c2cc(O)c(O)c([N+](=O)[O-])c2)n1 [OPC] .
Solution: 1940

###

Assay: Phase 1 two-period crossover study of the effect of quinidine on the pharmacokinetics of opicapone (plasma PK)
Format: in vivo, human
Conditions: both sexes, human, plasma, oral, 50 mg, opicapone; geometric mean from linear mixed effects model; OPC 50 mg, healthy subjects; read-out: AUC0-inf, GM
Experimental: A Phase 1, Randomized, Open-Label, Two-Period Crossover Study to Assess the Effect of Quinidine on the Pharmacokinetics of Opicapone (OPC) in Healthy Subjects […] Blood samples for the assessment of plasma concentrations of OPC and its metabolites were collected within 30 minutes predose and approximately 0.5, 1, 1.5, 2, 3, 4, 6, 8, 10, 12, 24, 48, 72, 96, and 120 hours postdose. The PK parameters to be calculated included the following for OPC and its metabolites: […]
resultType: AUC(0-inf) (ng·h/mL)
Give the value in ng·h/mL but do not write ng·h/mL after it.

Exercise: If you can, please state the reported AUC(0-inf) value of Cc1c(Cl)c(C)[n+]([O-])c(Cl)c1-c1noc(-c2cc(O)c(O)c([N+](=O)[O-])c2)n1 [OPC] .
Solution: 2030

###

Assay: Phase 1 two-period crossover study of the effect of quinidine on the pharmacokinetics of opicapone (plasma PK)
Assay type: in vivo, human
Settings: both sexes, human, plasma, oral, 50 mg, opicapone in plasma; healthy subjects, fasted, single dose OPC 50 mg; Mean; read-out: AUC(0-last), Mean
resultType: AUC(0-t) (ng·h/mL)
Give the value in ng·h/mL but do not write ng·h/mL after it.

Exercise: If you can, please state the reported AUC(0-t) value of Cc1c(Cl)c(C)[n+]([O-])c(Cl)c1-c1noc(-c2cc(O)c(O)c([N+](=O)[O-])c2)n1 .
Solution: 2040
